log10(KM): recorded values
B1: glmS ribozyme (parent)
chain: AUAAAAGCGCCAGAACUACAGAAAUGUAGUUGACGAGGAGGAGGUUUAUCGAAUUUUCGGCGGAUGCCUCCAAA

Variants of: B1
assay.explanation: KM; higher = weaker cofactor use; RNA array
test.settings: with glucosamine-6-phosphate
The common logarithm of KM in µM is what is listed.

Some variants with known log10(KM) results, for comparison:
>>> print(df.to_string())
                                biosequence  measured_result
0  AUAAAAGCGCCAGGACUACAGAAAUGUAGUUGACGAGGAGGAGGUUUAACGAAUUUUCGGCGGAUGCCUCCAAA [A14G U49A]             2.89
1  AUAAAAGCGCCAGAACUACAGAAAUGUAGUGGACGAGGAGGAGGUUUAUCGAAUUUUCGGCGGAUGUCUCCAAA [U31G C67U]             3.02
2  AUAAAAGCGCCAGAACUACAGAAAUGUAGUUGACGAGGGGGAGGUUUAUCGAAUUUUUGGCGGAUGCCUCCAAA [A39G C58U]             3.48
3  AUAAAAGCGCCAGAACUACAGAAAUGUAUUUGACGAGGAGGGGGUUUAUCGAAUUUUCGGCGGAUGCCUCCAAA [G29U A42G]             3.25
4  AUAAAAGCGACUGAACUACAGAAAUGUAGUUGACGAGGAGGAGGUUUAUCGAAUUUUCGGCGGAUGCCUCUAAA [C10A A12U C71U]             1.33

Next up:
Which log10(KM) reading was recorded for the variant AUAAAAGCGCCAGAACUACAGAAAUGUAGUUGACGAGGAGUAGGUUUAUCGCAUUUUCGGCGGAUGCCUCCAAA [G41U A52C] ?
3.51

Values were extracted from the supplement of paper PMC7125110.
